tested.on: human CaMKIIδ (Homo sapiens, UniProt Q13557)
Construct: Full-length, glutathione-S-transferase(GST)-tagged, human CaMKIIδ was purchased from Carna Biosciences; purchased Carna Biosciences (CaMKIIδ); Wako Pure Chemical Industries (calmodulin) 02-111
measurement.notes: Evaluation of in vitro CaMKII inhibitory activity (binding assay, TR-FRET)
condition.label: human CaMKIIδ, TR-FRET binding assay; class symbols A/B/C; read-out: Act (CaMKII inhibitory activity, binding assay)
pIC50: −log10 of the molar value.
property.name: pIC50

See these solved cases before continuing.
compound=C[C@@H](Cn1cnnn1)Oc1cc(-c2ccn3ncc(-c4cccc(F)c4C#N)c3n2)ccc1F property_name=pIC50 observed_value="> 8.00"
compound=C[C@@H](Cn1cnnn1)Oc1cccc(-c2ccn3ncc(-c4cccc(C(=O)NCC(C)(C)O)c4)c3n2)c1 property_name=pIC50 observed_value="> 8.00"
compound=CC(=O)NCCCOc1cccc(-c2cnc3ccc(-c4ccc(F)c(O[C@@H](C)Cn5cnnn5)c4)nn23)c1C#N property_name=pIC50 observed_value="> 8.00"
compound=C[C@@H](Cn1cnnn1)Oc1cccc(-c2ccn3ncc(-c4cccc(C(=O)N5CCC(C)(O)CC5)c4)c3n2)c1 property_name=pIC50 observed_value="7.00 to 8.00"
compound=C[C@@H](Cn1cnnn1)Oc1cccc(-c2ccn3ncc(-c4cccc(C(=O)NCCCN5CCCC5=O)c4)c3n2)c1 property_name=pIC50 observed_value="> 8.00"

// next entry
Summary line: C[C@@H](Cn1cnnn1)Oc1cccc(-c2ccn3ncc(-c4cccc(C(=O)NCCc5ccccc5)c4)c3n2)c1 , human CaMKIIδ (Homo sapiens, UniProt Q13557), reported pIC50 = 7.00 to 8.00

The reported numbers originate from patent US12528816B2.
